assay: Cytotoxicity against Swiss mouse peritoneal macrophages assessed as cell detachment, lysis and granulation measured after 5 days by microscopic analysis; type: cell-based, Peritoneal macrophage; settings: time 5 day
# CC50 at 120 h values compiled below
measured_property: CC50 at 120 h

- smiles_entry: "Nc1ncnc2c1c(-c1ccccn1)nn2[C@@H]1O[C@H](CO)[C@@H](O)[C@H]1O"
  measured_property: "CC50 at 120 h"
  observed_result: "> 64 µM"
- smiles_entry: "Nc1ncnc2c1c(-c1ccc(F)cc1)nn2[C@@H]1O[C@H](CO)[C@@H](O)[C@H]1O"
  measured_property: "CC50 at 120 h"
  observed_result: "> 64 µM"
- smiles_entry: "N#Cc1ccc(-c2nn([C@@H]3O[C@H](CO)[C@@H](O)[C@H]3O)c3ncnc(N)c23)cc1"
  measured_property: "CC50 at 120 h"
  observed_result: "> 64 µM"
- smiles_entry: "Nc1ncnc2c1c(-c1ccc(OC(F)(F)F)cc1)nn2[C@@H]1O[C@H](CO)[C@@H](O)[C@H]1O"
  measured_property: "CC50 at 120 h"
  observed_result: "> 64 µM"
- smiles_entry: "Nc1ncnc2c1cnn2[C@H]1C[C@H](O)[C@@H](CO)O1"
  measured_property: "CC50 at 120 h"
  observed_result: "> 64 µM"
- smiles_entry: "Cc1ccc(-c2nn([C@@H]3O[C@H](CO)[C@@H](O)[C@H]3O)c3ncnc(N)c23)cc1"
  measured_property: "CC50 at 120 h"
  observed_result: "> 64 µM"
- smiles_entry: "NCc1nn([C@@H]2O[C@H](CO)[C@@H](O)[C@H]2O)c2ncnc(N)c12"
  measured_property: "CC50 at 120 h"
  observed_result: "8 µM"
- smiles_entry: "O=c1[nH]cnc2c1cnn2[C@@H]1O[C@H](CO)C[C@H]1O"
  measured_property: "CC50 at 120 h"
  observed_result: "> 64 µM"
- smiles_entry: "CNc1nn([C@@H]2O[C@H](CO)[C@@H](O)[C@H]2O)c2ncnc(N)c12"
  measured_property: "CC50 at 120 h"
  observed_result: "> 64 µM"
- smiles_entry: "Cc1cc(-c2nn([C@@H]3O[C@H](CO)[C@@H](O)[C@H]3O)c3ncnc(N)c23)ccc1Cl"
  measured_property: "CC50 at 120 h"
  observed_result: "> 64 µM"
- smiles_entry: "O=c1[nH]cnc2c1c(Br)nn2[C@@H]1O[C@H](CO)C[C@H]1O"
  measured_property: "CC50 at 120 h"
  observed_result: "> 64 µM"
- smiles_entry: "Nc1ncnc2c1c(-c1ccc(C(F)(F)F)cc1)nn2[C@@H]1O[C@H](CO)[C@@H](O)[C@H]1O"
  measured_property: "CC50 at 120 h"
  observed_result: "> 64 µM"
- smiles_entry: "Nc1ncnc2c1c(C(F)F)nn2[C@@H]1O[C@H](CO)[C@@H](O)[C@H]1O"
  measured_property: "CC50 at 120 h"
  observed_result: "0.25 µM"
